- Tested on: RARa:RXR (NR concentration 270 nM, RXRa partner concentration 90 nM)
- ASSAY_METHOD_TEXT: PBM binding z-score (relative to random genomic background probes); higher = stronger binding; sequences stand for … in GC…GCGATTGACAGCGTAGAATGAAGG
OUTCOME_MEASURE: PBM binding z-score
A bare number is all that is needed in reply.

Example cases with answers are listed next.
BIOPOLYMER_SEQUENCE | OUTCOME_MEASURE | MEASURED_NUMBER
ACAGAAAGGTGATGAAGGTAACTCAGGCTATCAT | PBM binding z-score | 0.91
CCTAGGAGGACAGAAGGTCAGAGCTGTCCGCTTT | PBM binding z-score | 1.98
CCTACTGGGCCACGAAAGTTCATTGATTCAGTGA | PBM binding z-score | 2.03

Lookup: For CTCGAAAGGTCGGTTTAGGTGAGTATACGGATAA , what is its reported PBM binding z-score?
Found: 1.64

Lookup: For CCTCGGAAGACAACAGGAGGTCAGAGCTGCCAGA , what is its reported PBM binding z-score?
Found: 2.01

---

This section presents sequences with their documented PBM binding z-score values.
- Test system: PPARa:RXRa (NR concentration 270 nM, RXRa partner concentration 90 nM)
- ASSAY_METHOD_TEXT: PBM binding z-score (relative to random genomic background probes); higher = stronger binding; sequences stand for … in GC…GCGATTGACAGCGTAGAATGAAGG
A bare number is all that is needed in reply.

BIOPOLYMER_SEQUENCE | PBM binding z-score
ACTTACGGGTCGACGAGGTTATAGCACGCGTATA | 2.97
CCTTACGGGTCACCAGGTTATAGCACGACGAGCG | 5.41
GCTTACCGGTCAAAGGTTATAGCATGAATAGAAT | 5.47
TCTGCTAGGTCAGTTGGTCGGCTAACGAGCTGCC | 1.17
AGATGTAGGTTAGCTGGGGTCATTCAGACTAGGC | 4.85
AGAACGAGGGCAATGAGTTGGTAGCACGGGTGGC | 1.18

Lookup: For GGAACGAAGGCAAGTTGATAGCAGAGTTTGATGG , what is its reported PBM binding z-score?
Found: -0.649

Lookup: For TCTAGCAGGCCAGAGGGTCACTGAAGAGGTACGG , what is its reported PBM binding z-score?
Found: 2.79

Lookup: For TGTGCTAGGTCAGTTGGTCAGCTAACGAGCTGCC , what is its reported PBM binding z-score?
Found: 1.23

Lookup: For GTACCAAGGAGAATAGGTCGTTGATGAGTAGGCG , what is its reported PBM binding z-score?
Found: 0.108

Lookup: For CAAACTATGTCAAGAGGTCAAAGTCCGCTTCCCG , what is its reported PBM binding z-score?
Found: 5.33

Lookup: For ACCTCTAGGTAAAAGTTCAGTGAATCCCGAGGAT , what is its reported PBM binding z-score?
Found: 3.58

Lookup: For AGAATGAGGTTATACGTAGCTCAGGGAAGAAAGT , what is its reported PBM binding z-score?
Found: 2.86

Lookup: For GAGACAGGGTCAGCTAGAGGCCAGAGTATGGAAA , what is its reported PBM binding z-score?
Found: 4.46

Lookup: For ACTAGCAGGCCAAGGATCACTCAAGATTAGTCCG , what is its reported PBM binding z-score?
Found: 0.628
